The measured values listed here are drawn from patent US20230114241A1.

- target_or_test_system: UniProt:P21453
- Sequence (P21453 whole entry): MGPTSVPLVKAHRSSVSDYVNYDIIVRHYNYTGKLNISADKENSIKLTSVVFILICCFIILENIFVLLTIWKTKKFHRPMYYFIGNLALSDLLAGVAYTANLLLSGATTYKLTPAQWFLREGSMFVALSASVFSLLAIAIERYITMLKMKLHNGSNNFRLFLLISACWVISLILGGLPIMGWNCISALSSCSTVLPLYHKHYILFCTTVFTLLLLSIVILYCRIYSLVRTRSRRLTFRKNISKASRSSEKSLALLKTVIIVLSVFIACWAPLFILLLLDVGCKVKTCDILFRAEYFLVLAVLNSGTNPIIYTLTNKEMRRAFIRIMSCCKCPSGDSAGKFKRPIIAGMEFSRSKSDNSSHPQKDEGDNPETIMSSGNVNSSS
- experiment_description: Inhibition of cAMP production (HTRF cAMP HiRange), S1P1 CHO-K1 cells
- Assay type: cell-based
- test_conditions: CHO-K1; inhibition of cAMP production; efficacy normalized to maximum efficacy of fingolimod; read-out: hS1P1 CAMP SPAN
experimental_readout: Emax

// Emax (UniProt:P21453) for "CCCn1nnc2cc(-c3nc(-c4ccc(C(F)(F)F)c(F)c4)no3)ccc21" = < 75%

// Emax (UniProt:P21453) for "Cc1ccc(-c2nc(-c3ccc4c(c3)nnn4C(C)C)no2)c(C)c1" = < 75%

// Emax (UniProt:P21453) for "FC(F)(F)c1cccc(-c2noc(-c3ccc4c(c3)nnn4C3CCCC3)n2)c1" = < 75%

// Emax (UniProt:P21453) for "C=CCn1nnc2cc(-c3nc(-c4ccccc4)no3)ccc21" = < 75%

// Emax (UniProt:P21453) for "Cc1ccccc1-c1noc(-c2ccc3c(c2)nnn3C2CC2)n1" = > 75%

// Emax (UniProt:P21453) for "Cc1ccccc1-c1nc(-c2ccc3c(c2)nnn3C(C)C)no1" = > 75%

// Emax (UniProt:P21453) for "COc1ccccc1-c1nnc(-c2ccc3c(c2)c(=O)on3C)o1" = < 75%

// Emax (UniProt:P21453) for "COc1ccc(-c2nc(-c3ccc4c(c3)nnn4C3CCCC3)no2)cc1" = < 75%

// Emax (UniProt:P21453) for "c1ccc(-c2noc(-c3ccc4[nH]nnc4c3)n2)cc1" = < 75%
